Species on record: Rattus norvegicus
experiment-description: DrugMatrix - Regimen: Daily Repeat
Assay type: toxicity, organism-based, Sprague-Dawley
Set-up: regimen Daily Repeat, gender Male, age 6-8 weeks
settings: in vivo, po, 0 mg/kg, 72 h, tissue Blood, route oral GAVAGE, dose level Control, time 3 day, […]
Please respond with reported HEMOGLOBIN for every item in the list.
The answer is to be given in G/DL; state only the numeric part.

q: What value of HEMOGLOBIN has been reported for the following compound? COc1ccc2c(c1)c(CC(=O)OCC(=O)O)c(C)n2C(=O)c1ccc(Cl)cc1
a: 13.65

q: Now try CSc1ccc2c(c1)N(CCC1CCCCN1C)c1ccccc1S2 (stereo not given) .
a: 12.88

q: Can you check CC(=O)[C@H]1CC[C@H]2[C@@H]3CCC4=CC(=O)CC[C@]4(C)[C@H]3CC[C@]12C next?
a: 13.42

q: Try Oc1c(Cl)cc(Cl)cc1Sc1cc(Cl)cc(Cl)c1O next.
a: 12.95

q: Another: CC(C)n1c(/C=C/C(O)CC(O)CC(=O)O)c(-c2ccc(F)cc2)c2ccccc21 (stereo not given)
a: 12.95

q: Similarly, Cn1cnc([N+](=O)[O-])c1Sc1ncnc2nc[nH]c12 ?
a: 13.43

q: Try the compound CC(C)(Oc1ccc(CCNC(=O)c2ccc(Cl)cc2)cc1)C(=O)O [BEZAFIBRATE]
a: 12.95

q: Continue with C=CCN
a: 14.53

q: Now try CCCCCCCCCc1ccc(O)cc1 .
a: 14.03

q: Repeat for the following compound: COC1=CC(=O)C[C@@H](C)[C@]12Oc1c(Cl)c(OC)cc(OC)c1C2=O
a: 13.4

q: Now the compound c1ccc2[nH]c(-c3cscn3)nc2c1
a: 13.23

q: What do we get for COCc1c(C(C)C)nc(C(C)C)c(/C=C/[C@@H](O)C[C@@H](O)CC(=O)O)c1-c1ccc(F)cc1 ?
a: 14.03

q: Ok, now CN(C)CCCC1(c2ccc(F)cc2)OCc2cc(C#N)ccc21 (stereo not given)
a: 13.42

q: Now the compound CC1=C(/C=C/C(C)=C/C=C/C(C)=C\C(=O)O)C(C)(C)CCC1
a: 13.28

q: And what about the compound CCCC[C@@H](CC)COC(=O)c1ccccc1C(=O)OC[C@@H](CC)CCCC [BIS(2-ETHYLHEXYL)PHTHALATE] ?
a: 13.23
